The reported measurements were obtained from patent US12692253B2.

- Tested on: E. faecalis (Ef)
- experiment.summary: Broth microdilution minimum inhibitory concentration (MIC), CLSI
- Format: cell-based
- experimental.context: Enterococcus faecalis, growth medium supplemented with sodium bicarbonate, read-out: Ef + bicarb MIC
reported.metric: MIC

CC(C)(N)C(=O)N1CCN(C(=O)Nc2ccn(-c3ccc(CN4CCC5(CCNC5)C4)cc3)c(=O)n2)CC1 (stereo not drawn); > 32 µg/mL

The following molecules each have a reported value; give each one's MIC.
1. CC(C)(N)C(=O)N1CCN(C(=O)Nc2ccn(-c3ccc(CCN4CCC5CC5(N)C4)c(F)c3)c(=O)n2)CC1 (stereo not drawn)
2. C[C@@H]1CN(C(=O)Nc2ccn(-c3ccc(CN4C[C@@H]5[C@@H](N)[C@@H]5C4)cc3)c(=O)n2)CCN1C(=O)[C@@](C)(N)CO
3. CC(C)(N)C(=O)N1CCN(C(=O)Nc2ccn(-c3ccc(CN4C[C@@H]5[C@@H](CN)[C@@H]5C4)cc3)c(=O)n2)CC1
4. C[C@@H]1CN(C(=O)[C@@](C)(N)CO)CCN1C(=O)Nc1ccn(-c2ccc(CN3C[C@@H]4[C@@H](N)[C@@H]4C3)cc2)c(=O)n1
5. Cc1cc(-n2ccc(NC(=O)N3CCN(C(=O)C(C)(C)N)CC3)nc2=O)ccc1CCN1CCC2CC2(N)C1 (stereo not drawn)

< 8 µg/mL
< 8 µg/mL
> 32 µg/mL
8 to 32 µg/mL
< 8 µg/mL

====

- System: E. coli (Ec)
- experiment.summary: Broth microdilution minimum inhibitory concentration (MIC), CLSI
- Assay type: cell-based
- experimental.context: Escherichia coli, growth medium supplemented with sodium bicarbonate, read-out: E. coli + bicarb MIC
- Experimental: A certified BSL-2 laboratory was used for testing. Compounds were evaluated using the broth microdilution minimum inhibitory concentration (MIC) and minimum bactericidal concentration (MBC) assays defined by Clinical and Laboratory Standards Institute (CLSI) in the M26-A guideline against S. aureus (Sa), E. coli (Ec), K. pneumoniae (Kp), A. baumannn (Ab), E. faecalis (Ef) and P. aeruginosa (Pa). […]
For each record, write down the corresponding MIC.

These recorded examples may help you get a feel for the data.
C[C@](N)(CF)C(=O)N1CCN(C(=O)Nc2ccn(-c3ccc(CN4C[C@@H]5[C@@H](N)[C@@H]5C4)cc3)c(=O)n2)CC1 [Compound 18]; < 8 µg/mL
CC(C)(N)C(=O)N1CCN(C(=O)Nc2ccn(-c3ccc(CN4C[C@@H]5[C@@H](N)[C@@H]5C4)cc3)c(=O)n2)CC1 [Compound 3]; < 8 µg/mL
CC[C@@H](N)C1[C@H]2CN(CCc3ccc(-n4ccc(NC(=O)N5CCN(C(=O)C(C)(C)N)CC5)nc4=O)cc3)C[C@@H]12 (stereo partly shown) [Compound 152]; 8 to 32 µg/mL
CC(C)(N)C(=O)N1CCN(C(=O)Nc2ccn(-c3ccc(CN4CC5CC(N)C5C4)cc3)c(=O)n2)CC1 (stereo not shown) [Compound 42]; < 8 µg/mL

The following compounds each have a reported value; give each one's MIC.
1. CC(Cc1ccc(-n2ccc(NC(=O)N3CCN(C(=O)C(C)(C)N)CC3)nc2=O)cc1)N1C[C@@H]2[C@H](C1)[C@H]2C(N)=O (stereo partly shown) [Compound 136]
2. CC(C)(N)C(=O)N1CCN(C(=O)Nc2ccn(-c3ccc(CCN4C[C@@H]5[C@@H](CN)[C@@H]5C4)c(F)c3)c(=O)n2)CC1 [Compound 127]
3. C[C@@](N)(CO)C(=O)N1CCN(C(=O)Nc2ccn(-c3ccc(CN4C[C@@H]5[C@@H](N)[C@@H]5C4)cc3)c(=O)n2)CC1 [Compound 40]
4. CC(C)(N)C(=O)N1CCN(C(=O)Nc2ccn(-c3ccc(CN4C[C@@H](N)C5(CC5)C4)cc3)c(=O)n2)CC1 [Compound 19]
5. C[C@H]1CN(C(=O)C(C)(C)N)CCN1C(=O)Nc1ccn(-c2ccc(CN3C[C@@H]4[C@@H](N)[C@@H]4C3)cc2)c(=O)n1 [Compound 17]
6. CC(C)(N)CC1CCN(C(=O)Nc2ccn(-c3ccc(CN4C[C@@H]5[C@@H](N)[C@@H]5C4)cc3)c(=O)n2)CC1 [Compound 48]
7. CC(C)(N)C(=O)N1CCN(C(=O)Nc2ccn(-c3ccc(CN4C[C@@H]5[C@H](N)[C@@H]5C4)cc3)c(=O)n2)CC1 [Compound 14]

1: > 32 µg/mL; 2: < 8 µg/mL; 3: < 8 µg/mL; 4: < 8 µg/mL; 5: < 8 µg/mL; 6: < 8 µg/mL; 7: < 8 µg/mL

The following compounds each have a reported value; give each one's MIC.
1. CC(Cc1ccc(-n2ccc(NC(=O)N3CCN(C(=O)C(C)(C)N)CC3)nc2=O)cc1)N1C[C@@H]2[C@@H](CN)[C@@H]2[C@H]1CO (stereo partly shown) [Compound 157]
2. CC(C)(N)C(=O)N1CCN(C(=O)Nc2ccn(-c3ccc(CN4CCC5(N)CC5C4)cc3)c(=O)n2)CC1 (stereo not shown) [Compound 13]
3. CC(C)(N)C(=O)N1CCN(C(=O)Nc2ccn(-c3ccc(CCN4CCC5CC5(N)C4)cc3)c(=O)n2)CC1 (stereo not shown) [Compound 93]
4. CCCC(Cc1ccc(-n2ccc(NC(=O)N3CCN(C(=O)C(C)(C)N)CC3)nc2=O)cc1F)N1C[C@@H]2[C@@H](CN)[C@@H]2C1 (stereo partly shown) [Compound 153]
5. CC(N)[C@H]1[C@@H]2CN(CCc3ccc(-n4ccc(NC(=O)N5CCN(C(=O)C(C)(C)N)CC5)nc4=O)cc3)C[C@@H]21 (stereo partly shown) [Compound 134]
6. NC[C@@H]1[C@H]2CN(CCc3ccc(-n4ccc(NC(=O)N5CC6(CC(N)C6)C5)nc4=O)cc3)C[C@@H]12 [Compound 149]

1: < 8 µg/mL; 2: < 8 µg/mL; 3: < 8 µg/mL; 4: < 8 µg/mL; 5: < 8 µg/mL; 6: 8 to 32 µg/mL

The following compounds each have a reported value; give each one's MIC.
1. N[C@@H]1[C@H]2CN(Cc3ccc(-n4ccc(NC(=O)N5CCC6(CC5)CNC6)nc4=O)cc3)C[C@@H]12 [Compound 61]
2. CC(Cc1ccc(-n2ccc(NC(=O)N3CCN(C(=O)[C@@](C)(N)CO)CC3)nc2=O)cc1)N1CCC2(CC1)CC(N)C2 (stereo partly shown) [Compound 115]
3. N[C@@H]1[C@H]2CN(Cc3ccc(-n4ccc(NC(=O)N5CCC6(CCNC6)C5)nc4=O)cc3)C[C@@H]12 (stereo partly shown) [Compound 63]
4. CC(C)(N)C(=O)N1CCN(C(=O)Nc2ccn(-c3ccc(CCN4CC5CC5(CN)C4)c(F)c3)c(=O)n2)CC1 (stereo not shown) [Compound 123]
5. CC(C)(N)C1CN(C(=O)Nc2ccn(-c3ccc(CN4C[C@@H]5[C@@H](N)[C@@H]5C4)cc3)c(=O)n2)CCO1 (stereo partly shown) [Compound 56]
6. CC(C)(N)C(=O)N1CCN(C(=O)Nc2ccn(-c3ccc(CCN4CC5CC5(CN)C4)c(C(F)(F)F)c3)c(=O)n2)CC1 (stereo not shown) [Compound 131]
7. NC[C@@H]1[C@H]2CN(CCc3ccc(-n4ccc(NC(=O)N5CCC6(CC5)CNC6)nc4=O)cc3)C[C@@H]12 [Compound 147]

8 to 32 µg/mL
< 8 µg/mL
> 32 µg/mL
< 8 µg/mL
8 to 32 µg/mL
< 8 µg/mL
< 8 µg/mL

// sample COc1cc(-n2ccc(NC(=O)N3CCN(C(=O)C(C)(C)N)CC3)nc2=O)ccc1CCN1C[C@@H]2[C@@H](CN)[C@@H]2C1 [Compound 132] , its MIC was < 8 µg/mL

====

- Tested on: E. faecalis (Ef)
- experiment.summary: Broth microdilution minimum inhibitory concentration (MIC), CLSI
- Assay type: cell-based
- experimental.context: Enterococcus faecalis, growth medium supplemented with sodium bicarbonate, read-out: Ef + bicarb MIC
reported.metric: MIC

CC(Cc1ccc(-n2ccc(NC(=O)N3CCN(C(=O)[C@@](C)(N)CO)CC3)nc2=O)cc1)N1CCC2(CC1)CC(N)C2 (some centres unmarked) [Compound 115]; < 8 µg/mL
CC(CN1C[C@@H]2[C@@H](CN)[C@@H]2C1)c1ccc(-n2ccc(NC(=O)N3CCN(C(=O)C(C)(C)N)CC3)nc2=O)cc1 (some centres unmarked) [Compound 121]; 8 to 32 µg/mL
CC(C)(N)C(=O)N1CCN(C(=O)Nc2ccn(-c3cccc(CCN4C[C@@H]5[C@@H](CN)[C@@H]5C4)c3)c(=O)n2)CC1 [Compound 143]; 8 to 32 µg/mL
CC(C)(N)C(=O)N1CCN(C(=O)Nc2ccn(-c3cccc(CCN4C[C@H]5C[C@@]5(N)C4)c3)c(=O)n2)CC1 [Compound 144]; > 32 µg/mL
CC(C)(N)C(=O)N1CCN(C(=O)Nc2ccn(-c3ccc(CN4C[C@@H]5[C@@H](N)[C@@H]5C4)cc3)c(=O)n2)CC1 [Compound 65]; < 8 µg/mL

The following compounds each have a reported value; give each one's MIC.
1. CC(C)(N)C(=O)N1CCN(C(=O)Nc2ccn(-c3ccc(CCN4CC5(CNC5)C4)cc3)c(=O)n2)CC1 [Compound 160]
2. CC(C)(N)C(=O)N1CCN(C(=O)Nc2ccn(-c3ccc(CCN4C[C@@H]5[C@@H](CN)[C@@H]5C4)c(F)c3)c(=O)n2)CC1 [Compound 127]
3. CC(Cc1ccc(-n2ccc(NC(=O)N3CCN(C(=O)[C@@](C)(N)CO)CC3)nc2=O)cc1)N1C[C@@H]2[C@@H](CN)[C@@H]2C1 (some centres unmarked) [Compound 125]
4. CC(C)(N)C(=O)N1CCN(C(=O)Nc2ccn(-c3ccc(CN4C[C@@H]5[C@H](N)[C@@H]5C4)cc3)c(=O)n2)CC1 [Compound 14]
5. CC(C)(N)CC1CCN(C(=O)Nc2ccn(-c3ccc(CN4C[C@@H]5[C@@H](N)[C@@H]5C4)cc3)c(=O)n2)CC1 [Compound 48]
6. CC(Cc1ccc(-n2ccc(NC(=O)N3CCN(C(=O)C(C)(C)N)CC3)nc2=O)cc1)N1CCC2(CC1)CC(N)C2 (centres unmarked) [Compound 114]

> 32 µg/mL
8 to 32 µg/mL
< 8 µg/mL
< 8 µg/mL
8 to 32 µg/mL
< 8 µg/mL

The following compounds each have a reported value; give each one's MIC.
1. CC(Cc1ccc(-n2ccc(NC(=O)N3CCN(C(=O)C(C)(C)N)CC3)nc2=O)cc1)N1CC2(CC(N)C2)C1 (centres unmarked) [Compound 112]
2. N[C@@H]1[C@H]2CN(Cc3ccc(-n4ccc(NC(=O)N5CCC6(CCNCC6)CC5)nc4=O)cc3)C[C@@H]12 [Compound 62]
3. CC(C)(N)C(=O)N1CCN(C(=O)Nc2ccn(-c3cccc(CCN4CC5CCC(C4)C5N)c3)c(=O)n2)CC1 (centres unmarked) [Compound 113]
4. CNC[C@@H]1[C@H]2CN(Cc3ccc(-n4ccc(NC(=O)N5CCN(C(=O)C(C)(C)N)CC5)nc4=O)cc3)C[C@@H]12 [Compound 75]
5. CC(C)(N)C(=O)N1CCN(C(=O)Nc2ccn(-c3ccc(CN4CCC5(CC4)CNC5)cc3)c(=O)n2)CC1 [Compound 83]
6. CC(C)(N)C(=O)N1CCN(C(=O)Nc2ccn(-c3cccc(CCN4CCC5(CC4)CC(N)C5)c3)c(=O)n2)CC1 [Compound 110]
7. CC(C)(N)C(=O)N1CCN(C(=O)Nc2ccn(-c3cccc(CCN4CC5CC5(CN)C4)c3)c(=O)n2)CC1 (centres unmarked) [Compound 142]
8. CC(c1ccc(-n2ccc(NC(=O)N3CCN(C(=O)C(C)(C)N)CC3)nc2=O)cc1)N1C[C@@H]2[C@@H](N)[C@@H]2C1 (some centres unmarked) [Compound 67]

["8 to 32 µg/mL", "8 to 32 µg/mL", "> 32 µg/mL", "8 to 32 µg/mL", "> 32 µg/mL", "8 to 32 µg/mL", "8 to 32 µg/mL", "< 8 µg/mL"]

The following compounds each have a reported value; give each one's MIC.
1. CC(C)(N)C(=O)N1CCN(C(=O)Nc2ccn(-c3ccc(CCN4CC5CC(N)C5C4)cc3)c(=O)n2)CC1 (centres unmarked) [Compound 96]
2. CC(C)(N)C(=O)N1CCN(C(=O)Nc2ccn(-c3ccc(CCN4CC5CC5(CN)C4)cc3)c(=O)n2)CC1 (centres unmarked) [Compound 117]
3. C[C@@](N)(CO)C(=O)N1CCN(C(=O)Nc2ccn(-c3ccc(CCN4CCC5CC5(N)C4)cc3)c(=O)n2)CC1 (some centres unmarked) [Compound 99]
4. CC(C)(N)C(=O)N1CCN(C(=O)Nc2ccn(-c3ccc(C(N)C(=O)N4C[C@@H]5[C@@H](CN)[C@@H]5C4)cc3)c(=O)n2)CC1 (some centres unmarked) [Compound 137]

1: < 8 µg/mL; 2: < 8 µg/mL; 3: 8 to 32 µg/mL; 4: > 32 µg/mL
